B1: TPR t1 (parent)
chain: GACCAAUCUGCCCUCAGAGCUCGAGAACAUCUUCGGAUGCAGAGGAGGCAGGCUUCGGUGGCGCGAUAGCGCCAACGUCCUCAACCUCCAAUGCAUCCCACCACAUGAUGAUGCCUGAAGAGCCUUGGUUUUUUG

Variants of: B1
Assay: polymerase ribozyme fitness, log enrichment relative to wild type (log ratio); higher = more active; in vitro selection for triplet polymerase activity
We'd kindly ask you to apply these polymerase ribozyme fitness (log ratio) classes: A (below -5), B (-5 to below -2), C (-2 or more)

>>> answer_label("GACCAAUCUGCCCUCAGAGCUCGAGAACAUCUUCGGAUGCAGAGGAGGCAGGCUUCGGGGUCGCGAUAGCGCCAACGUCCUCAACCUCCAAUGCAUCCCACCACAUGAUGAUGCCUGAAGAGCCUUGGUUUUUUG [U59G G61U]")
"C"
>>> answer_label("GAUCAAUCUGACCUCAGAGCUCGAGAACAUCUUCGGAUGCAGAGGAGGCAGGCUUCGGUGGCGCGAUAGCGCCAACGUCCUCAACCUCCAAUGCAUCCCACCACAUGAUGAUGCCUGAACAGCCUUGGUUUUUUG [C3U C11A G120C]")
"C"
>>> answer_label("GACCAAUCUGCCCUCAGAGCACGAGAACAUCUUCGGAUGCAGAGGAGGGAGGCUUCGGUGGCGCGAUAGCGCCAACGUCCUCAACCUCCAACGCAUCCCACCAUAUGAUGAUGCCUGAAGAGCCUUGGUUUUUUG [U21A C49G U92C C104U]")
"B"
>>> answer_label("GACCAAUCUGGCCUGAGAGCUCGAGAACAUCUUCGGAUGCAGAGGACGCAGGCUUCGGUGGCGCGAUAGCGCCAACGUCCUCAACCUCCAAUGCAUCCCACCACAUGAUGAUGCCCGAAGAGCCUUGGUUUUUUG [C11G C15G G47C U116C]")
"B"
>>> answer_label("GACCAAUCUGCCCUCAGAGCUUGAGACCAUCUUCGGAUGCAGAGGAGGCAGGCUUCGGUGGCGCGAUAGCGCCAACGUCCUCAACCGCCAAUGCAUCCCACCACAUGAUGAUGCCUGAAGAGCCUUGGUUUUUUG [C22U A27C U87G]")
"A"
>>> answer_label("GACCAAUCUGCCCUCAGAGCUCGAGAACAUCUUCGGAUGCAGAGGAGGCAGGCUUCGGUGGCGCGAUAACGCCAACGUCCUCAACCUGCAAUGCAUCCCACUACAUGAUGAUGCCUGAAGAGCCUUGGUUUUUUG [G69A C88G C102U]")
"A"
>>> answer_label("GACCAAUCUGCCCUCAGAGCUCGAGAACAUCUUCGGAUGCAGAGGAGUCAGGCUUCGGUGGCGCGAUAGCGCCAACGUCCUCAACCUCCAAUGCAUCCCACCACAUGAUGUUGCCUGAAGAGCCGUGGUUUUUUG [G48U A111U U125G]")
"B"
>>> answer_label("GACGAAUCUGCCCUCAGAGCUCGAGAACAUCUUCGGAUGCAGAGGAGGCAGGCUUGGGUGGCGUGAUAGCGCCAACGUCCUCAACCUCCAAUGCAUCCCACCACAUGAUGAUGCCUGAAGAGCCUUGGUUUUUUG [C4G C56G C64U]")
"B"
>>> answer_label("GACCAAUCUGCCCUCUGAGCUCGAGAACAUCUUCGGAUGCAGAGCAGGCAGGCUUGGGUGGCGUGAUAGCGCCAACGUCCUCCACCUCCAAUGCAUCCCACCACAUGAUGAUGCCUGAAGAGCCUUGGUUUUUUG [A16U G45C C56G C64U A83C]")
"B"
>>> answer_label("GACCAGUCUGCCCUCAGAGCUCGAGAACAUCUUGGGAUGCAGAGGAGGCAGGCUUAGGUGGCGCGAUAGGGCCAACGUCCUCAACCUCCAAUGCAUCCCACCACAUGAUGAUGCCUGAAUAGCCUUGGUUUUUUG [A6G C34G C56A C70G G120U]")
"A"
>>> answer_label("GACCAAUCUUCCCUCAGUGCUCGAGAACUUCUUCGGAUGCAGAGGAGGCAGGCAUCGGUGGCGCGAUAGCGCCAACGUCCUCAACCUCCAAUGCAUCCCACCACAUGAUGAUGCCUGAAGCGCCUUGGUUUUUUG [G10U A18U A29U U54A A121C]")
"C"
>>> answer_label("GACCAAUCUGCCCUCAGAGCUCGAGAACAUCUUCGGAUGCAGAGGAGGCAGGCUUCGGUGGCGCGAUAGCACCAACGUCCUCAACCUCCAAUGCAUCCCACCACAUGAUGAUGUCUGAAGAGCCUUGGUUUUUUG [G71A C114U]")
"B"
>>> answer_label("GACCAAUCUGCCCUCAGAGCUCGAGAACAUCUUCGGAUGCAGAGGAGGCAGCCUUCGGUGGCGCGAUAGAGCCAACGUCCUCAACCUCCAAUGCAUCCCACCACAUGAUGAUGCCUCAAGAGCCUUGGUUUUUUG [G52C C70A G117C]")
"A"
>>> answer_label("GACCAAUCUGCCCUCAGAGCUCGAGAACAUCUUCGGAUGCAGAGGAGGCAGGCUUCGGUGGCGUGAUAGCGCCAACGUCCUCAACCUCCAAUGCAUCCCACCACAGGAUGAUGCCUGAACAGCCUUGGUUUUUUG [C64U U106G G120C]")
"C"
>>> answer_label("GACCAAUCUGCCCUCAGAGCUCGAGAACAUCUUCGUAUGCAGAGGAGGCAGGCUUCGGUGGCGCGAUAGCGCCAACGUCCCCAACCUCCAAUGCAUCCCACCACAUCAUGAUGCCUGAAGAGCCUUGGUUUUUUG [G36U U81C G107C]")
"A"
>>> answer_label("GACCAAUCUGCCCUCAGAGCUCGAGAACAUCUUCGGAUGCAGAGGAGGCAGACUUCGGUGGCGCGAUAUCGCCAACGUGCUCAACCACCUAUGCAUCCCACCACAUGAUGAUGCCAGAAGAGCCUUGGUUUUUUG [G52A G69U C79G U87A A90U U116A]")
"B"
>>> answer_label("GACCAAUCUGCCCUCAGAGCUCGAGAACAUCUUCGGAUGCAGAGGAGGCGGACUUCGGUGGCGCGAUAGCGCCAACGUCCUCAACCUCCAAUGCAUCCCACCACAUGAUGAUGCCUGAAGAGCCUUGGUUUUUUG [A50G G52A]")
"C"
>>> answer_label("GACGAAUCUGCCCUCAGAGCUCGAGAACAUCUUCGGAUGCAGAGGAGGCAGGCUUCGGUGGCGCGAUAGCGCCAACGUCCUCAACCUCCAAUGCAUACCACCACAUGAUGAUGCCUGAAGAGCCUUGGUUUUUUG [C4G C97A]")
"A"
>>> answer_label("GACCAAUCUGCCCUAAGAGCUCGAGAACAUCUUCGGAUGCAGAGGAGGCAGGCUUCGGUGGCGCGAUAGCGCCAACGUCCUCAACCUCCGAUACAUCCCACCUCAUGAUGAUGCCUGAAUAGCCUUGGUUUUUUG [C15A A90G G93A A103U G120U]")
"A"
>>> answer_label("GACCAAUCUGCACUUAGAGCUCGAGAACAUCUUCGGAUGCAGAGGAGGCAGGCUUCGGUGGCGCGAUAACGCCAACGUCCUCAACCUCCAAUUCAUCCCACCACAUGAGGAUGCCUGAAGAGCCUUGGUUUUUUG [C12A C15U G69A G93U U109G]")
"A"
>>> answer_label("GACCAAUCUGCCGUCAGAGCUGGAGAACAUCUUCGGAUGCAGAGGAGGCAGGUUUCGGUAGCGCGAUAGCGCCAACGUCCUCAACCUCCAACGCAUCCCACCACAUGAUGAUGCCUGUAGAGCCUUGGUUUUUUG [C13G C22G C53U G60A U92C A118U]")
"A"
>>> answer_label("GACCAAUCUGCCCUCAGAGCUCGAGGACAUCUUCGGAUGCAGAGGAGGCAGGCUUCGGUGGAGCGAUAGCGCCAACGUCCUUAACCUCCAAUGCAUCCCACCACAUGAUGAUGCCUGAAGAGCCUUGGUUUUUUG [A26G C62A C82U]")
"B"
>>> answer_label("GGCCAAUCUGCCCUCAGAGCUCGAGAACAUCUUCGGAUGCAGAGGAGGCAGGCUUCGGUGGCGCGAUAGCGCUAACGUCCUCAACCUCCAAUGCAUCCCACCACAUGAUGAUGCCUGAAGAGCCUUGGUUUUUUG [A2G C73U]")
"C"
>>> answer_label("GACCAAUCCGCCCUCAGAACUCGAGAACAUCAUCGGAUGCAGAGGAGGCAGGCUUCGGUGGCGCGAUAGCGCCAACGUCCUCAACCUUCAAUGCAUCCCACCACAUGAUGAUGCCUGAAGAGACUUGGUUUUUUG [U9C G19A U32A C88U C123A]")
"A"
>>> answer_label("GACCAAUCUGCCCUCAGAGCUCGAGAACAUCUUCGGAUGCAGAGGAGGCAGGCUUGGGUGGCGCGAUAGCGCCAACGUCCUCAACCUCCAAUGCAUCCCACCACAUGAUGAUGCCCGAAGAGCCUUGGUUUUUUG [C56G U116C]")
"C"
>>> answer_label("GACCAAUCAGCCUUCAGAUCUCGAGAACAUCUUCGGAUGCAGAGGAGGCAGGCUUCGGUGGCGCGAUAGCGCCAACGACCUCAACCUCCAGUGCAUCCCACCACAUGAUGAUGCCUGAAGAGCCUUGGUUUUUUG [U9A C13U G19U U78A A91G]")
"B"
>>> answer_label("GACCAAUCUGCCCUCAGAGCUCGAGACCAUCUUCGGAUGCAGAGGAGGCAGGCAUCGGUGGCGCGAUAGCACCAACGUCCUCAACCUCCAAUGCAUCCCACCACAUGAUGAUGCAUGAAGAGCCUUGGAUUUUUG [A27C U54A G71A C115A U129A]")
"A"
>>> answer_label("GACCAAUUUGUCCUCAGAGCUCGAGAACAUCUUCGGAUGCAGAGGAGGCUGGCUUCGGUGGCGCGAUAGCGCCAACGUCCUCAACCUCCAAUGCAUCCCACCACAUGAUGAUGCCUGAAGAGCCUUGGUUUUUUG [C8U C11U A50U]")
"C"
>>> answer_label("GACCAAUCUGCCCUCAGAGCUCGAGAACAUCUUCGGAUGCAGAGGAGGCAGGCUUCGGUGGCGCGAUAGCGCCAACGUCCUCGACCUCCAAUGCAUCCCACCACAUGAUGAUGCCUGAAUAGCAUUGGUUUUUUA [A83G G120U C124A G135A]")
"C"
>>> answer_label("GACCAAUCUGCGCUCAGAGCUCGAGAACAUCUUCGGAUGCAGAGGAUGCAGGCUUCGGUGGCGCGAUAGCGCCAACGUCCUCAACCGCCAAUGCAUCCCACCACAUGAUGAUGCCAGAAGAGCAUUGGUUUUUUG [C12G G47U U87G U116A C124A]")
"C"
>>> answer_label("GACCCAUCUGCCCUCAGAGCUCGAGAACAUCUUCGGAUGCAGAGGAGGCCGGCUUCGGUGGCGCGAUAGCGCCAACGUCCUCAACCUCCAAUGCAGCCCACCACAUGAUGAUGCCUGAAGAGCCUUGGUUUUUUG [A5C A50C U96G]")
"C"
>>> answer_label("GACCAAUCUGCCCUCAGAGCUCGAGAACAUCUUCGGAUGCAGAGGAGGCAGGCUUCGGUGGCGCGAUAGCGCCAACGUCCUCAACAUCCAAUGCAUCCCACCACAUGAUGACGCCUGAAGAGCCUUGGUUUUUUG [C86A U112C]")
"C"
>>> answer_label("GACCAAUCUGCCCUCAGAGCUCGAGAACAUCUUCGGAUGCAGAGGAGGCAGGCUUCGGUGGCGCGAUAGCGCCAACGUCCUCAACCUCCAAUGCAUCCCACCACAUGAUGAUGACUGAAGAGCCUUGGUUCUUUG [C114A U131C]")
"C"
>>> answer_label("GACCAAUCUGCCCUCAGAGCUCGAGAACAUCUUCGGAUGCAGAGGAGCCAGGCUUCGGUGGCGCGAUAGCGCCAACGUCCUCAACCUCCAAAGCAUCCCACCAUAUGAUGAUGCCUGAAGAGCCUUGGUUUUUUG [G48C U92A C104U]")
"B"
